- systemUnderTest: human GPR40 (Homo sapiens)
- Sequence (O14842 whole entry): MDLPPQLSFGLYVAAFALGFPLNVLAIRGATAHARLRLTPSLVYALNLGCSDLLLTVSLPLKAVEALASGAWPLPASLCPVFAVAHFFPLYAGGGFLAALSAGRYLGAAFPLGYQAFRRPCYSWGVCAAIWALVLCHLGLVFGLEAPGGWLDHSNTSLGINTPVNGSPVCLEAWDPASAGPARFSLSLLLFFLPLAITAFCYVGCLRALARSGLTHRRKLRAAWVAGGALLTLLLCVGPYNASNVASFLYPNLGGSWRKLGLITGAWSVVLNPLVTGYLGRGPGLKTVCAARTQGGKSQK
- assayNotes: Calcium flux (FLIPR, Fluo-8) agonist assay in CHO cells stably expressing human GPR40
- Format: cell-based
- conditionLabel: 5 μM; relative to GPR40 activation by 20 μM of GW9509, n = 2
recordedMetric: % FFA1 activation at 5 μM (%)

Measured % FFA1 activation at 5 μM, Cl.Cl.O=C(O)CCc1ccc(OCc2ccc(CN3CCC4(CC3)CC(Oc3ccncc3)CCO4)cc2)cc1 (centres unmarked) : 13.6

P: Cl.Cl.O=C(O)CCc1ccc(OCc2ccc(CN3CCC4(CC3)CC(CC(=O)NCc3ccncc3)CCO4)cc2)cc1 (centres unmarked)
Q: Cl.Cl.O=C(O)CCc1ccc(OCc2ccc(CN3CCC4(CC3)CC(Oc3ccccn3)CCO4)cc2)cc1 (centres unmarked)
query: So which one has the bigger % FFA1 activation at 5 μM here, P or Q ? In your reply, give the label of the chosen option.
result: Q

1: Cl.Cl.O=C(O)CCc1ccc(OCc2ccc(CN3CCC4(CC3)CC(N3CCOCC3)CCO4)cc2)cc1 (centres unmarked)
2: Cl.Cl.O=C(O)CCc1ccc(OCc2ccc(CN3CCC4(CC3)CC(Oc3ncccn3)CCO4)cc2)cc1 (centres unmarked)
query: When the recorded % FFA1 activation at 5 μM values are compared, which is smaller: that of 1 or that of 2 ? In your reply, give the label of the chosen option.
result: 1
(1: 10.2%, 2: 80.0%)

This collection of values is drawn from paper PMC6021034.
